Measured values drawn from paper PMC4046888 for this set.

TESTED_TARGET: WHSC1 (Homo sapiens, UniProt O96028)
Sequence (O96028 1-1365): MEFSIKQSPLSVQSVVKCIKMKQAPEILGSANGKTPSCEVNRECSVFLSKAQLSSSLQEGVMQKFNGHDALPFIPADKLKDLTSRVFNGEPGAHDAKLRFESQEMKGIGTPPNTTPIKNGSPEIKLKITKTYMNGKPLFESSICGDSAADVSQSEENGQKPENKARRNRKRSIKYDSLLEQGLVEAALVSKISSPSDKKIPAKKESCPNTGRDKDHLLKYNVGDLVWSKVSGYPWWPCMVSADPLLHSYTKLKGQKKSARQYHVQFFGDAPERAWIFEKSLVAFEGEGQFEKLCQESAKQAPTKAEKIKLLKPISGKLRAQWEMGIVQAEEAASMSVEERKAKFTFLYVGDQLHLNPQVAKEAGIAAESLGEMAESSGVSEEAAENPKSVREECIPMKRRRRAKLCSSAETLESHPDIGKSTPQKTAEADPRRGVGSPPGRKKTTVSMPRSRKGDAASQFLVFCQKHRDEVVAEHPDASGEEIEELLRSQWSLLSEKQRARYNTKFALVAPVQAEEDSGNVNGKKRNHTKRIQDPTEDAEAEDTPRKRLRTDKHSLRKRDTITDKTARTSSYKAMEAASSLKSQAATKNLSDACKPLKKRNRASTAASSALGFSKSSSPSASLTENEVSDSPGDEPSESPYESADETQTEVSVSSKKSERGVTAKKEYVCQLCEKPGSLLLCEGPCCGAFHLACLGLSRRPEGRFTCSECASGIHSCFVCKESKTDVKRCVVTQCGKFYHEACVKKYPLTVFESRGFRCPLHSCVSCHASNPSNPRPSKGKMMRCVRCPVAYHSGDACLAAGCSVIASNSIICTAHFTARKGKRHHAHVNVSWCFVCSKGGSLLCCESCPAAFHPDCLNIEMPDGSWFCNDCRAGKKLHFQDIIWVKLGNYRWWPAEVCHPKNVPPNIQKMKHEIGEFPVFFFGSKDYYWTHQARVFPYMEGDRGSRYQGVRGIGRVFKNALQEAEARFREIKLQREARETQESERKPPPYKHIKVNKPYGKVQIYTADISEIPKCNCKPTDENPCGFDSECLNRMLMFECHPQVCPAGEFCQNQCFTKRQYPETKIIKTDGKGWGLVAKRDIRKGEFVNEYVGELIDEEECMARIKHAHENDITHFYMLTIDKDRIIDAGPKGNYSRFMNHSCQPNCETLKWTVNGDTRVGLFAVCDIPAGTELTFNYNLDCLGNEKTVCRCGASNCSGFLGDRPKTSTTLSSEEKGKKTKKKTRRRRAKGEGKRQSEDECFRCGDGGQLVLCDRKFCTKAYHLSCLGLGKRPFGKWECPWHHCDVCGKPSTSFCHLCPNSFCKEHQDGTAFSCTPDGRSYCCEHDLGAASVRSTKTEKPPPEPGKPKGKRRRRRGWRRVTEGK

- QUERY_SMILES: "CC(C)N(CCCNC(=O)Nc1ccc(C(C)(C)C)cc1)C[C@H]1O[C@@H](n2ccc3c(N)ncnc32)[C@H](O)[C@@H]1O"
  IC50: "> 50 µM"

====

Target chain: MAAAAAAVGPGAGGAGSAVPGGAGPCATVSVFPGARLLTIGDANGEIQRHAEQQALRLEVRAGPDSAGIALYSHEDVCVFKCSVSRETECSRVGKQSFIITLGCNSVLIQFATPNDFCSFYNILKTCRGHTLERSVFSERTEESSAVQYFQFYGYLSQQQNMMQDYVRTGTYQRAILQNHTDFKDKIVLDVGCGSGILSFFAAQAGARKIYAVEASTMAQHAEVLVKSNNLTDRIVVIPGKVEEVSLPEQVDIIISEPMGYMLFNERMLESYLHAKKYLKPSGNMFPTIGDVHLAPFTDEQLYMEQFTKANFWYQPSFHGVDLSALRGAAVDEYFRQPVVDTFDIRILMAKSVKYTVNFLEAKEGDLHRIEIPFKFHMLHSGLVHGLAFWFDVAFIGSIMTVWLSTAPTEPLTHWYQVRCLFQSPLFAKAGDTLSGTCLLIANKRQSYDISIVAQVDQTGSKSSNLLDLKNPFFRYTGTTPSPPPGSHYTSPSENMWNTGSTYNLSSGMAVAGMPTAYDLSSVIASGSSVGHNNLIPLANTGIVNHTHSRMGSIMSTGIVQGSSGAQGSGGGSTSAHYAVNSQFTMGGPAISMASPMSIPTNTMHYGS
MEASURED_ATTRIBUTE: IC50

- QUERY_SMILES: "CC(C)N(CCCNC(=O)Nc1ccc(C(C)(C)C)cc1)C[C@H]1O[C@@H](n2ccc3c(N)ncnc32)[C@H](O)[C@@H]1O"
  RESULT: "> 50 µM"
